test: Caspase-3/7 induction in CHO-K1 cells by small molecules, qHTS cell viability counter screen (AID 1346979); also: nearly all actives have a fitted effect of over 35% in size
settings: CellTiter-Fluor fluorescence, 17 h; series mostly up to 92.4 µM
Records with an inconclusive call do not appear. Calls of active or inactive are those of the source. Calls follow the shape of the dose curve; as a rule, active = well fitted cell-killing curve with a large enough effect in the repeat runs; inconclusive = weak or mixed curves, or effect the other way; inactive = no such curve, though single readings can be large or run the other way.
Labels: active, inactive

| compound | assigned_class |
| --- | --- |
| C[N+](C)(C)CCCl | inactive |
| C=CCCl | inactive |
| C[C@@H]1CC[C@H]2[C@@H](C)C(=O)O[C@@H]3O[C@@]4(C)CC[C@@H]1[C@]32OO4 | active |
| CC[C@H]1C[C@H]2[C@@H]3CCC4=CC(=O)CC[C@@H]4[C@H]3CC[C@]2(C)[C@H]1O | inactive |
| CC(C)O.CC(C)O.OCCN(CCO)CCO.OCCN(CCO)CCO.[Ti] | inactive |
| O=S(=O)(O)C(F)(F)C(F)(F)C(F)(F)C(F)(F)F | active |
| CCOP(=S)(OCC)SCn1nnc2ccccc2c1=O | active |
| CCCCNP(N)(N)=S | inactive |
| O=C=Nc1ccc(Cl)cc1 | inactive |
| C=CC(=O)OCC(C)C | inactive |
| CC(Cl)C(C)Cl (stereo unspecified) | inactive |
| ClCC(Br)CBr (stereo unspecified) | inactive |
| II | active |
| Cl/C=C\C[N+]12CN3CN(CN(C3)C1)C2 | inactive |
| CCO[C@H]1O[C@@H]2OC3(C)CC[C@H]4[C@H](C)CC[C@@H]([C@H]1C)[C@@]24OO3 | active |
| O=C(Nc1ccccc1)Nc1cnns1 | active |
| C=C(C#N)CCC#N | inactive |
| C=CCN1CC[C@]23c4c5ccc(O)c4O[C@H]2C(=O)CC[C@@]3(O)[C@H]1C5 | inactive |
| COC(N)=O | inactive |
| CCCC(=O)Cl | inactive |
| C=CC[C@]1(O)CC[C@H]2[C@@H]3CCC4=CC(=O)CCC4=C3C=C[C@@]21C | active |
| C/C(=C\c1ccccc1)[N+](=O)[O-] | active |
| COP(=S)(OC)Oc1ccc([N+](=O)[O-])cc1Cl | active |
| N#CCc1ccccc1 | inactive |
| O=C(NC(=O)c1c(F)cccc1F)Nc1ccc(OC(F)(F)C(F)OC(F)(F)F)c(Cl)c1 (stereo unspecified) | inactive |
| Brc1ccc(Oc2ccccc2)cc1 | inactive |
| CN1[C@@H]2CC[C@H]1CC(OC(=O)c1cc(Cl)cc(Cl)c1)C2 (stereo partly specified) | inactive |
| CCCCCCCCCCOC(=O)c1ccccc1C(=O)OCCCCCCCCCC | inactive |
| CCOC(=O)COc1cc(-c2nn(C)c(OC(F)F)c2Cl)c(F)cc1Cl | inactive |
| Cc1ccccc1CCl | inactive |
| Cl/C=C\Cl | inactive |
| CC(C)(OO)c1ccccc1 | inactive |
| CCCN(CCCl)c1c([N+](=O)[O-])cc(C(F)(F)F)cc1[N+](=O)[O-] | inactive |
| C/C=C/C=O | inactive |
| COC(=O)C(Br)CBr (stereo unspecified) | inactive |
| CCOC(=O)CBr | inactive |
| Nc1nc(=S)[nH][nH]1 | inactive |
| O=C(NC(=O)c1c(F)cccc1F)Nc1cc(Cl)c(Oc2ncc(C(F)(F)F)cc2Cl)c(Cl)c1 | active |
| NNC(=O)c1cccnc1 | inactive |
| COc1cc(Cl)c(OC)cc1Cl | inactive |
| Cc1c(F)c(F)c(COC(=O)C2C(/C=C(\Cl)C(F)(F)F)C2(C)C)c(F)c1F (stereo unspecified) | inactive |

Values compiled from PubChem BioAssay (Tox21).
